Target: Tau
Assay: rat primary cortical neurons, FLIPR, 25 uM ASO
Bases are written 5' to 3'; sugars and linkages follow in the same order, as letters with counts (s phosphorothioate, o phosphodiester; PS: all linkages phosphorothioate). The collection does not say whether C is 5-methylated. l = locked nucleic acid (LNA); d = 2'-deoxy (DNA)
Listing of recorded calcium oscillation score by entry.
metric name: calcium oscillation score

1) AAGCAATAGCAAACA (sugars l3 d9 l3, PS); 142 % of control
2) CTACTATTTACTATGC (sugars l3 d9 l4, PS); 66.8 % of control
3) AGGTCAACTGGTTTGT (sugars l3 d10 l3, PS); 0 % of control
4) CCTGTCTCAAACACCTA (sugars l2 d12 l3, PS); 60.6 % of control
5) GGTCTGAGCTACCAGG (sugars l3 d10 l3, PS); 14.8 % of control
6) ACTCATCAACACCTTTTAAT (sugars l2 d14 l4, PS); 63 % of control
7) ACCATTAACTGCCTATT (sugars l4 d11 l2, PS); 50.5 % of control
8) CTTTACCCATCTTAATTC (sugars l4 d11 l3, PS); 86.1 % of control
9) TCTTAGTCATCTTCCCT (sugars l3 d12 l2, PS); 68.6 % of control
10) GCTTCCAGTCCCGTCT (sugars l3 d10 l3, PS); 104 % of control
11) CTCTTCAAATCATTCAAT (sugars l4 d10 l4, PS); 69.7 % of control
12) AAGTCCCGAGCCAAAG (sugars l3 d10 l3, PS); 91.8 % of control
13) TGCCTAATGAGCCACA (sugars l3 d10 l3, PS); 44.4 % of control
14) ACCCTTGATCATATTTGTGG (sugars l3 d14 l3, PS); 30.9 % of control
15) TTTCATCTACTTTTCAGC (sugars l4 d12 l2, PS); 39.4 % of control
16) ATAGATTTTACTACTC (sugars l4 d8 l4, PS); 73.3 % of control
17) CAGACCATCAATTTCCCT (sugars l2 d14 l2, PS); 72.5 % of control
18) TTTTCCCAATTATTAACCC (sugars l3 d14 l2, PS); 71.4 % of control
19) AGAGACCACATTATCATCCA (sugars l3 d14 l3, PS); 26.2 % of control
20) CCTTGATCATATTTGTGGCA (sugars l3 d14 l3, PS); 28.6 % of control
21) AAGTCCCGAGCCAAA (sugars l3 d9 l3, PS); 102 % of control
22) CTTTATTTCCAAATTCACTT (sugars lldllddddddddddlldll, PS); 117 % of control
23) GCGGAAGGTCAGCTTG (sugars l3 d10 l3, PS); 25.9 % of control
